target: Serine/threonine-protein kinase MARK1 (Homo sapiens); settings: at 1 µM
MEASUREMENT KIND: inhibition (%)
Numbers only, in %.

Worked set:
STRUCTURE NOTATION: CCCN1CCC=C(c2ccc(Nc3nc(Nc4ccccc4C(N)=O)c4cc[nH]c4n3)c(C)c2)C1
inhibition [%]: 16.1
--
STRUCTURE NOTATION: CN(C)c1cc2c(Nc3ccc4nc(Cc5ccccc5)[nH]c4c3)ncnc2cn1
inhibition [%]: 5.59

Please give inhibition, item by item, for the list that follows.
1. CC(C)=Cc1cccc2c1/C(=N/Nc1ccc(S(N)(=O)=O)cc1)C(=O)N2
2. Cc1cccc(-c2n[nH]cc2-c2ccc3ncccc3n2)n1
3. CS(=O)(=O)CCNCc1nc(-c2ccc3ncnc(Nc4ccc(F)c(Cl)c4)c3c2)cs1

A.
24.8
1.95
1.33

###

biological target: Mitogen-activated protein kinase 14 (Homo sapiens); conditions: at 0.1 µM;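 also: values are mean percent inhibition of p38α kinase from the GSK PKIS published kinase inhibitor set screen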
MEASUREMENT KIND: inhibition (%)
Give bare numbers, in %.

STRUCTURE NOTATION: CCn1c(-c2nonc2N)nc2cnc(Oc3cccc(NC(=O)c4ccc(OCCN5CCOCC5)cc4)c3)cc21
inhibition (%): 2.01
--
STRUCTURE NOTATION: CCn1c(-c2nonc2N)nc2c(C#CC(C)(C)O)nc(OC[C@@H](N)c3ccccc3)cc21
inhibition (%): 1.93
--
STRUCTURE NOTATION: CC(=O)Nc1cccc(C#Cc2cncnc2Nc2ccc(OCc3cccc(F)c3)c(Cl)c2)n1
inhibition (%): -0.35
--
STRUCTURE NOTATION: Fc1cccc(COc2ccc(Nc3ncnc4cc(-c5ccc[nH]5)sc34)cc2Cl)c1
inhibition (%): 1.24

Next up:
The recorded inhibition for Nc1ncnc2occ(-c3ccc(NC(=O)Nc4cc(C(F)(F)F)cc(C(F)(F)F)c4)cc3)c12 is 2.48

###

target: Protein kinase C eta type (Homo sapiens); conditions: at 0.1 µM;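 also: values are the mean percent inhibition of PKC-eta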
Exercise: for every item that follows, state its recorded inhibition.
Numbers only, in %.

COMPOUND: CC1=C(C(=O)Nc2ccc3[nH]ncc3c2)C(c2ccc(Cl)c(Cl)c2)CC(=O)N1 (stereo not drawn)
MEASUREMENT KIND: inhibition
OBS VALUE: 0.22
--
COMPOUND: COC(=O)Nc1nc2cc(Oc3cccc(NC(=O)Nc4cc(C(F)(F)F)ccc4F)c3)ccc2[nH]1
MEASUREMENT KIND: inhibition
OBS VALUE: 0.61

Next up:
The recorded inhibition for COc1cc2c(cc1Nc1nc(N3CCc4ccccc43)c3cc[nH]c3n1)N(C(=O)CN(C)C)CC2 is 3.35

###

Exercise: for every item that follows, state its recorded inhibition.
target: Fibroblast growth factor receptor 3 (Homo sapiens); conditions: at 1 µM
Numbers only, in %.

Worked set:
COMPOUND: CCc1cccc(NC(=O)Nc2ccc(Oc3ccc4nc(NC(=O)OC)[nH]c4c3)cc2)c1
ASSAY SYSTEM: Fibroblast growth factor receptor 3 (Homo sapiens)
inhibition [%]: 6.95
//
COMPOUND: COc1cc(C)c(NC(=O)CN(C)C)cc1Nc1nc(Nc2cccc(F)c2C(N)=O)c2cc[nH]c2n1
ASSAY SYSTEM: Fibroblast growth factor receptor 3 (Homo sapiens)
inhibition [%]: 1.03
//
COMPOUND: Cc1ccc(NC(=O)c2ccnc(N3CCCC3)c2)cc1-c1ccc(C(=O)NCC2CC2)cc1
ASSAY SYSTEM: Fibroblast growth factor receptor 3 (Homo sapiens)
inhibition [%]: 4.11
//
COMPOUND: NS(=O)(=O)c1cccc(-c2ccc3c(NC(=O)C4CC4)n[nH]c3c2)c1
ASSAY SYSTEM: Fibroblast growth factor receptor 3 (Homo sapiens)
inhibition [%]: 0.44
//
COMPOUND: COc1cc2ncn(-c3cc(OCc4ccccc4Cl)c(C(N)=O)s3)c2cc1OC
ASSAY SYSTEM: Fibroblast growth factor receptor 3 (Homo sapiens)
inhibition [%]: 13.2
//
COMPOUND: CCn1c(-c2nonc2N)nc2cncc(C(=O)N3CCNCC3)c21
ASSAY SYSTEM: Fibroblast growth factor receptor 3 (Homo sapiens)
inhibition [%]: 7.38
//
COMPOUND: O=C1NC(=O)C(c2cccc(Cl)c2)=C1Nc1ccc(O)c(Cl)c1
ASSAY SYSTEM: Fibroblast growth factor receptor 3 (Homo sapiens)
inhibition [%]: 21.3
//
COMPOUND: CN1CCC(C(=O)Nc2n[nH]c3nnc(-c4ccccc4)cc23)CC1
ASSAY SYSTEM: Fibroblast growth factor receptor 3 (Homo sapiens);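 also: values reported are mean percent inhibition of FGFR3 activity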
inhibition [%]: 4.99

Please give inhibition, item by item, for the list that follows.
1. N#Cc1c(NC(=O)c2cccc3ccccc23)sc2c1CCCC2
2. COc1cc(C=NNc2ncnc3c2cnn3-c2ccccc2)ccc1O
3. CC(=O)Nc1cccc(C#Cc2cncnc2Nc2ccc(OCc3cccc(F)c3)c(Cl)c2)n1

A.
1: 4.55; 2: 7.58; 3: -2.39

Please give inhibition, item by item, for the list that follows.
1. CCn1c(-c2nonc2N)nc2c(C#CC(C)(C)O)nc(CN3CCCC3)cc21
2. COc1ccc(COc2ccc(Cc3cnc(N)nc3N)cc2OC)cc1
3. CCn1c(-c2nonc2N)nc2ccncc21
4. COc1ccccc1Nc1ncc(-c2ccccc2)o1
5. NCc1ccc(-c2nc(-c3ccc(Cl)c(O)c3)c(-c3ccncc3)[nH]2)cc1

A.
[-0.76, 0.98, 0.64, 13.1, 5.11]

###

target: NT-3 growth factor receptor (Homo sapiens) (UniProt Q16288); details: at 1 µM;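 also: mean TRKC inhibition from the GSK PKIS kinase inhibitor set, with assays run by Nanosyn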
Sequence (Q16288 32-839 limits assumed): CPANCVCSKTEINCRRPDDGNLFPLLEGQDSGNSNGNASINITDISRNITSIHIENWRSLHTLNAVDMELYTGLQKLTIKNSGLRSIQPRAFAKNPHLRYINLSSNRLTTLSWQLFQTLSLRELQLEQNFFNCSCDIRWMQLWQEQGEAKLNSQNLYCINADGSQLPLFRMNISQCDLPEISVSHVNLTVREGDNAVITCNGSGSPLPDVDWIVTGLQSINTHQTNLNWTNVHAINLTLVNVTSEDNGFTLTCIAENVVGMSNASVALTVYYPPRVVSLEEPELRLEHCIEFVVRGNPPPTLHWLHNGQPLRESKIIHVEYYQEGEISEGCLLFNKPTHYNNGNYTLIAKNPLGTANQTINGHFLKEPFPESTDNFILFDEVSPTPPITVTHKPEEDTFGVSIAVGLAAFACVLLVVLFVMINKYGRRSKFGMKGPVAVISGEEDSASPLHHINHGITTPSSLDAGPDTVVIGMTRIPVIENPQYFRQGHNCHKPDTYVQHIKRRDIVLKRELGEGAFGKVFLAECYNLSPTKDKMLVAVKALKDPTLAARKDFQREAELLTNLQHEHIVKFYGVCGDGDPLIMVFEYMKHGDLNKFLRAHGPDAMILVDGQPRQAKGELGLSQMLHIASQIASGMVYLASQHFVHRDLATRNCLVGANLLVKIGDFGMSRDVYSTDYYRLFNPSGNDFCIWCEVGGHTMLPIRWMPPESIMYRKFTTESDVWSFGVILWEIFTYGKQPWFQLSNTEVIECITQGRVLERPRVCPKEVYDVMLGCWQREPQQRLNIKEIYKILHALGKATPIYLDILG
Label Y when inhibition >= 30%; otherwise N.

COMPOUND: Cc1nnc(-c2ccc(C)c(-c3ccc(C(=O)Nc4cccc(C#N)c4)cc3)c2)o1
LABEL CLASS: N

Moving on to the next compound.
Q. Can COC(=O)Nc1nc2cc(Oc3cccc(NC(=O)Nc4cc(C(F)(F)F)ccc4F)c3)ccc2[nH]1 be said to have inhibition at or above 30%?
A. N

###

Exercise: for every item that follows, state its recorded inhibition.
molecular target: Serine/threonine-protein kinase MARK1 (Homo sapiens) (UniProt Q9P0L2); conditions: at 0.1 µM
Sequence (Q9P0L2 whole entry, looked up): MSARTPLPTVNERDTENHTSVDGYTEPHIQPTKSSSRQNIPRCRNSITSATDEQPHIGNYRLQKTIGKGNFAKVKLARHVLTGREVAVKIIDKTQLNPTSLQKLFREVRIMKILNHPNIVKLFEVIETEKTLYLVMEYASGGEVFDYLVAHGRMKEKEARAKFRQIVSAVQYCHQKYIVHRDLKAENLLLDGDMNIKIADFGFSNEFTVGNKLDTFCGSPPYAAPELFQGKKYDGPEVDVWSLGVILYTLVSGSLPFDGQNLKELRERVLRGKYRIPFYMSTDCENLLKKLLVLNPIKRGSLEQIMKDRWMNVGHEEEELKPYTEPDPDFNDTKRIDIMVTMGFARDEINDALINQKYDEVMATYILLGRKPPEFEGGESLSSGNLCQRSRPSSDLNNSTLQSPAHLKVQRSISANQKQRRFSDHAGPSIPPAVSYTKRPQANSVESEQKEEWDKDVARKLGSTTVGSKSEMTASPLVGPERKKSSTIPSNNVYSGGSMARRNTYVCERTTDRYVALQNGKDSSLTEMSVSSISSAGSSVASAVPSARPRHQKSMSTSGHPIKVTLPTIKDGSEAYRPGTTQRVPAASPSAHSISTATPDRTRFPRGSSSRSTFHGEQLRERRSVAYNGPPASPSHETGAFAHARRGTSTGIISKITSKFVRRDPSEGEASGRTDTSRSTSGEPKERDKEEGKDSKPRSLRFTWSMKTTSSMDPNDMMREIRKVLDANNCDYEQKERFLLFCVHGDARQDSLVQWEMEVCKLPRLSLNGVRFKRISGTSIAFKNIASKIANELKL
Description: GSK_PKIS: MARK1 mean inhibition at 0.1 uM [Nanosyn]
Give bare numbers, in %.

Worked set:
STRUCTURE NOTATION: CS(=O)(=O)CCN(CC#N)Cc1ccc(-c2ccc3ncnc(Nc4ccc(OCc5cccc(F)c5)c(Cl)c4)c3c2)o1
inhibition, %: 0.76
//
STRUCTURE NOTATION: Fc1cccc(COc2ccc(Nc3ncnc4cc(-c5ccc[nH]5)sc34)cc2Cl)c1
inhibition, %: 1.53
//
STRUCTURE NOTATION: NCc1ccc(-c2nc(-c3ccc(Cl)c(O)c3)c(-c3ccncc3)[nH]2)cc1
inhibition, %: 2.03
//
STRUCTURE NOTATION: COc1cc(C)c(NC(=O)CN(C)C)cc1Nc1nc(Nc2cccc(F)c2C(N)=O)c2cc[nH]c2n1
inhibition, %: -0.37
//
STRUCTURE NOTATION: COc1ccc(COc2ccc(Cc3cnc(N)nc3N)cc2OC)cc1
inhibition, %: 2.6

Please give inhibition, item by item, for the list that follows.
1. O=C1NC(=O)C(c2cccc(Cl)c2)=C1Nc1ccc(O)c(Cl)c1
2. Cc1nnc(-c2ccc(C)c(-c3ccc(C(=O)Nc4cccc(C#N)c4)cc3)c2)o1
3. COc1ccccc1Nc1ncc(-c2ccccc2)o1
4. CCn1c(-c2nonc2N)nc2cncc(C(=O)N3CCNCC3)c21

A.
2.1
1.96
2.73
2.63

The recorded inhibition for Nc1nc(-c2ccc3c(c2)C(=Cc2cc(Br)c(O)c(Br)c2)C(=O)N3)cs1 is 0.42

###

system: Tyrosine-protein kinase ABL1 (Homo sapiens), P00519 [Y253F]; details: at 1 µM
MEASUREMENT KIND: inhibition (%)
Numbers only, in %.

STRUCTURE NOTATION: CCn1c(-c2nonc2N)nc2c(C#CC(C)(C)O)nc(CN3CCCC3)cc21
ASSAY SYSTEM: Tyrosine-protein kinase ABL1 (Homo sapiens), P00519 [Y253F]
inhibition [%]: -0.16

STRUCTURE NOTATION: [O-][S+]1CCN(Cc2ccc(-c3ccc4ncnc(Nc5ccc(OCc6ccccc6)c(F)c5)c4c3)o2)CC1
ASSAY SYSTEM: Tyrosine-protein kinase ABL1 (Homo sapiens), P00519 [Y253F]
inhibition [%]: -0.81

STRUCTURE NOTATION: CS(=O)(=O)CCN(CC#N)Cc1ccc(-c2ccc3ncnc(Nc4ccc(OCc5cccc(F)c5)c(Cl)c4)c3c2)o1
ASSAY SYSTEM: Tyrosine-protein kinase ABL1 (Homo sapiens), P00519 [Y253F]
inhibition [%]: 1.9

The recorded inhibition for COc1cc(C)c(NC(=O)CN(C)C)cc1Nc1nc(Nc2cccc(F)c2C(N)=O)c2cc[nH]c2n1 is -0.09

###

target: ALK tyrosine kinase receptor (Homo sapiens) (UniProt Q9UM73); settings: at 1 µM
Sequence (Q9UM73 19-1620 limits assumed): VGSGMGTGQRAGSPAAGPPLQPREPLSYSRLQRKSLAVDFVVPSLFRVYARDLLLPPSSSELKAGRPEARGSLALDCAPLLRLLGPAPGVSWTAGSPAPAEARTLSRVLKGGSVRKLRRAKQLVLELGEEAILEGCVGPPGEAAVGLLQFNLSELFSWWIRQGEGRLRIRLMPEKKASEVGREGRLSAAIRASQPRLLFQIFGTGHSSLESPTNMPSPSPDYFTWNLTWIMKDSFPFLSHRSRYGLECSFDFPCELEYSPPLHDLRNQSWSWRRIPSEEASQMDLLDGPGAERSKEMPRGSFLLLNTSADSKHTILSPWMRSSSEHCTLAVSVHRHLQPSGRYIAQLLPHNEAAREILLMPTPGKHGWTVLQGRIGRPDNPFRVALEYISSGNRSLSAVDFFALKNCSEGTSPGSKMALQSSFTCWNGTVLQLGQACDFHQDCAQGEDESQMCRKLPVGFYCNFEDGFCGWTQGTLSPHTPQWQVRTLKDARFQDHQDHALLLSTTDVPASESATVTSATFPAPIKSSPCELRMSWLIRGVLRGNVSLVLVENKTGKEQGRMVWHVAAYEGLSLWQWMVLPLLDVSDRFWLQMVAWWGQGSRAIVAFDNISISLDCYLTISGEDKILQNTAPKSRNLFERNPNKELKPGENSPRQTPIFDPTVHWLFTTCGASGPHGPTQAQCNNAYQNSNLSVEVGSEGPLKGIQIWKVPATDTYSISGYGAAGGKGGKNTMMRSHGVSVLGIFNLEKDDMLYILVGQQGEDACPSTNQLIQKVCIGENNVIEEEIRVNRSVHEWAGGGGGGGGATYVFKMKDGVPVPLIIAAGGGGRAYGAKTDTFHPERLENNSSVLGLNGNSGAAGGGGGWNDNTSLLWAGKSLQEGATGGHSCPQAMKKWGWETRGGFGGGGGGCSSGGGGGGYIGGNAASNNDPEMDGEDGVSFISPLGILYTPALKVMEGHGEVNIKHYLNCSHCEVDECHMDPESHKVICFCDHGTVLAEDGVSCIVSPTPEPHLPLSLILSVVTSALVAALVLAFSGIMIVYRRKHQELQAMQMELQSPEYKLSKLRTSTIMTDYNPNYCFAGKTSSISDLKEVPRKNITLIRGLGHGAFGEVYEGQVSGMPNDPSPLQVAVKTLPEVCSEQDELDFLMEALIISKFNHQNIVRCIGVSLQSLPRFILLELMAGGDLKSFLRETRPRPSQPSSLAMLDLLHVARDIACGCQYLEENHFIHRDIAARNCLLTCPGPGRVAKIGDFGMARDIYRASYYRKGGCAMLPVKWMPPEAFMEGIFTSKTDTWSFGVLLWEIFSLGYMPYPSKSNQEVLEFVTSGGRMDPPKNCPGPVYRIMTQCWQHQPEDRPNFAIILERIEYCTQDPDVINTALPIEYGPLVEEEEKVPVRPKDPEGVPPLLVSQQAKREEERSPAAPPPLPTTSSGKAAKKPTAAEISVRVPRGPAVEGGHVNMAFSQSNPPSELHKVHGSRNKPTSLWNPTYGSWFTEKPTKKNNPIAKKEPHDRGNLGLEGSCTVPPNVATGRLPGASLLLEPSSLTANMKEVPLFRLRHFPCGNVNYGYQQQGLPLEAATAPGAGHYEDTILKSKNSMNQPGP
MEASUREMENT KIND: inhibition

Worked set:
COMPOUND: Cc1nnc(-c2ccc(C)c(-c3ccc(C(=O)Nc4cccc(C#N)c4)cc3)c2)o1
ASSAY SYSTEM: ALK tyrosine kinase receptor (Homo sapiens) (UniProt Q9UM73)
inhibition: 2.36%
--
COMPOUND: COc1cc2ncn(-c3cc(O[C@H](C)c4ccccc4Cl)c(C(N)=O)s3)c2cc1OC
ASSAY SYSTEM: ALK tyrosine kinase receptor (Homo sapiens) (UniProt Q9UM73)
inhibition: 19%
--
COMPOUND: COc1cc(C=NNc2ncnc3c2cnn3-c2ccccc2)ccc1O
ASSAY SYSTEM: ALK tyrosine kinase receptor (Homo sapiens) (UniProt Q9UM73);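 also: values are mean percent inhibition of ALK, screened as part of the GSK PKIS panel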
inhibition: 6.69%

Please give inhibition, item by item, for the list that follows.
1. CN1CCC(C(=O)Nc2n[nH]c3nnc(-c4ccccc4)cc23)CC1
2. CN(C)c1cc2c(Nc3ccc4nc(Cc5ccccc5)[nH]c4c3)ncnc2cn1
3. CCN1CCC(CC(=O)Nc2n[nH]c3nc(-c4cccs4)c(Br)cc23)CC1
4. Fc1cccc(COc2ccc(Nc3ncnc4sc(-c5cccs5)cc34)cc2Cl)c1

A.
1: 6.61%; 2: 4.24%; 3: -1.3%; 4: 0.57%

Please give inhibition, item by item, for the list that follows.
1. Cn1cc(C=C2C(=O)Nc3cccnc32)c2ccccc21
2. CCn1c(-c2nonc2N)nc2c(C#CC(C)(C)O)nc(OC[C@@H](N)c3ccccc3)cc21
3. NC(=O)c1cccc(Nc2nccc(Nc3cccc4[nH]ncc34)n2)c1

A.
1. 9.81%
2. 10.2%
3. 15.4%

These entries and their values trace back to ChEMBL document CHEMBL1961873.
